- Protocol summary: Oral bioavailability in Sprague-Dawley rat at 3 mg/kg
- Format: ADME, organism-based
- Assay setup: in vivo
Readout name: bioavailability (%)
Give the quantity in %, number only.

Problem: Given the compound C[C@@H]1[C@@H]2CN(c3nc(Nc4cnn(C)c4)ncc3F)C[C@]12NC(=O)[C@@H]1CC1(F)F , write its reported bioavailability.
Result: 54

---

- Protocol summary: Intrinsic clearance in human hepatocytes per million cells
- Assay type: ADME, cell-based, Hepatocyte
- Assay setup: read-out: CLH
Readout name: hepatocyte CLint
Answer format: number, then unit.

Problem: Name the recorded hepatocyte CLint of the item C[C@@H]1[C@@H]2CN(c3nc(Nc4cnn(C)c4)ncc3F)C[C@]12NC(=O)[C@@H]1CC1(F)F in your answer.
Result: 3.45 µL/min/1e6 cells

---

- Protocol summary: Aqueous solubility of compound in pH 6.5 buffer
- Assay type: physicochemical
Readout name: solubility (µg/mL)
Report only the number, with the unit µg/mL understood.

Problem: State its solubility: C[C@@H]1[C@@H]2CN(c3nc(Nc4cnn(C)c4)ncc3F)C[C@]12NC(=O)[C@@H]1CC1(F)F
Result: 140

---

- Protocol summary: Half life in Sprague-Dawley rat at 1 mg/kg, iv
- Assay type: ADME, organism-based
- Assay setup: in vivo
Readout name: half-life (h)
Form entry: value (h) — number only.

Problem: Indicate the recorded half-life value for this molecule: C[C@@H]1[C@@H]2CN(c3nc(Nc4cnn(C)c4)ncc3F)C[C@]12NC(=O)[C@@H]1CC1(F)F
Result: 1.4

---

- Protocol summary: Lipophilicity, log D of compound at pH 7.4
- Format: physicochemical
- Assay setup: buffer
Readout name: logD
# respond with the number and nothing more

For orientation, consider the following solved cases.
{"Query smiles": "C[C@@H]1[C@@H]2CN(c3nc(Nc4cnn(C)c4)ncc3F)C[C@]12NC(=O)[C@@H]1C[C@H]1C#N", "logD": 2.35}
{"Query smiles": "N#C[C@H]1C[C@@H]1C(=O)N[C@@]12C[C@@H]1CN(c1nc(Nc3cnn(CCO)c3)ncc1F)C2", "logD": 1.43}
{"Query smiles": "O=C(C1CC1)N1C2CCC1CN(c1nc(Nc3cnn(CCO)c3)ncc1F)C2", "logD": 1.8}
{"Query smiles": "CCNC(=O)c1ccc(Nc2nccc(N3CC4CC(C3)N4C(=O)C3CC3)n2)cc1", "logD": 1.7}
{"Query smiles": "N#C[C@@H]1C[C@H]1C(=O)N[C@@]12C[C@@H]1CN(c1nc(Nc3cnn(CCO)c3)ncc1F)C2", "logD": 1.4}
{"Query smiles": "C[C@@H]1[C@@H]2CN(c3nc(Nc4cnn(CCO)c4)ncc3F)C[C@]12NC(=O)C1CC1", "logD": 2.1}
{"Query smiles": "C[C@@H]1[C@@H]2CN(c3nc(Nc4cnn(CCO)c4)ncc3F)C[C@]12NC(=O)[C@@H]1C[C@H]1C#N", "logD": 1.71}
{"Query smiles": "C[C@@H]1[C@@H]2CN(c3nc(Nc4cnn(C)c4)ncc3F)C[C@]12NC(=O)[C@H]1CC1(F)F", "logD": 2.92}
{"Query smiles": "C[C@@H]1[C@@H]2CN(c3nc(Nc4cnn(C)c4)ncc3F)C[C@]12NC(=O)[C@@H]1CC1(F)F", "logD": 2.65}
{"Query smiles": "O=C(N[C@]12C[C@H]1CN(c1nc(Nc3cnn(CCO)c3)ncc1F)C2)C1CC1", "logD": 1.75}

Problem: Identify measured logD corresponding to O=C(N[C@@]12C[C@@H]1CN(c1nc(Nc3cnn(CCO)c3)ncc1F)C2)C1CC1
Result: 1.74

Problem: Fill in reported logD for this entry: C[C@@H]1[C@@H]2CN(c3nc(Nc4cnn(C)c4)ncc3F)C[C@]12NC(=O)[C@H]1C[C@@H]1C#N
Result: 2.32

Problem: Supply recorded logD for CCNC(=O)c1ccc(Nc2nccc(N3CC4CCC(C3)N4C(=O)C3CC3)n2)cc1 here.
Result: 1.8

Problem: Give the value of logD reported for the following: C[C@@H]1[C@@H]2CN(c3nc(Nc4cnn(CCO)c4)ncc3F)C[C@]12NC(=O)[C@H]1C[C@@H]1C#N
Result: 1.75

---

- Protocol summary: Volume of distribution in Sprague-Dawley rat at 1 mg/kg, iv
- Assay type: ADME, organism-based
- Assay setup: in vivo
Readout name: Vd
Answer shape: numeric part, then the unit.

Problem: For the compound C[C@@H]1[C@@H]2CN(c3nc(Nc4cnn(C)c4)ncc3F)C[C@]12NC(=O)[C@@H]1CC1(F)F , give its reported Vd.
Result: 1.2 L/kg

---

Below, each of the compounds is paired with its reported Papp value.
- Protocol summary: Apparent permeability in dog MDCK2 cells at pH 7.4
- Assay type: ADME, cell-based, Canis lupus familiaris, MDCK-II
- Assay setup: MDCK

Would you please look over these solved cases?
{"Query smiles": "C[C@@H]1[C@@H]2CN(c3nc(Nc4cnn(CCO)c4)ncc3F)C[C@]12NC(=O)[C@H]1C[C@@H]1C#N", "Data value": "1.2 ×10⁻⁶ cm/s"}
{"Query smiles": "C[C@@H]1[C@@H]2CN(c3nc(Nc4cnn(C)c4)ncc3F)C[C@]12NC(=O)[C@@H]1CC1(F)F", "Data value": "17 ×10⁻⁶ cm/s"}
{"Query smiles": "C[C@@H]1[C@@H]2CN(c3nc(Nc4cnn(C)c4)ncc3F)C[C@]12NC(=O)[C@@H]1C[C@H]1C#N", "Data value": "12.9 ×10⁻⁶ cm/s"}

Shift focus to the following entry.
Problem: State its Papp: C[C@@H]1[C@@H]2CN(c3nc(Nc4cnn(C)c4)ncc3F)C[C@]12NC(=O)[C@H]1C[C@@H]1C#N
Result: 13.8 ×10⁻⁶ cm/s

---

- Protocol summary: AUC infinity in Sprague-Dawley rat at 3 mg/kg, po
- Format: ADME, organism-based
- Parameters: dose 3 mg/kg, route oral, time infinity
- Assay setup: in vivo
Readout name: AUC(0-inf) (ng·h/mL)
Output spec: scalar in ng·h/mL, unitless text.

Problem: Return AUC(0-inf) (reported value) for this compound: C[C@@H]1[C@@H]2CN(c3nc(Nc4cnn(C)c4)ncc3F)C[C@]12NC(=O)[C@@H]1CC1(F)F
Result: 2030

---

- Protocol summary: Intrinsic clearance in human liver microsome
- Format: ADME
- Assay setup: liver microsomes, read-out: CLH
Readout name: microsomal CLint

Problem: Look up and state reported microsomal CLint for C[C@@H]1[C@@H]2CN(c3nc(Nc4cnn(C)c4)ncc3F)C[C@]12NC(=O)[C@@H]1CC1(F)F
Result: < 8 µL/min/mg
